Assay: DNDI: Lipophilicity (gLogD) at pH 7.4
Format: physicochemical
Conditions: buffer
readout: chromatographic logD

P: O=C(C(c1ccc(Cl)cc1)c1cccnc1)N1CCN(c2ccc(C(F)(F)F)cc2)CC1 (stereo not drawn)
Q: CS(=O)(=O)c1ccc(N2CCN(C(=O)C(c3ccc(Cl)cc3)c3cncnc3)CC2)cc1 (stereo not drawn)
**Query** Pick one: P or Q . Which one has the lower reported chromatographic logD? Give the chosen item's label as your response.
**Result** Q

P: O=C(C(c1ccc(Cl)cc1)c1cncnc1)N1CCN(c2ccc(C(F)(F)F)cc2)CC1 (stereo not drawn)
Q: CS(=O)(=O)c1ccc(N2CCN(C(=O)C(c3ccc(C#N)cc3)c3cccnc3)CC2)cc1 (stereo not drawn)
**Query** Compare P and Q by numeric chromatographic logD and name the larger one. Give the chosen item's label as your response.
**Result** P
